This section presents compounds with their documented CC50 values.
test system: HI-HeLa cells; assay: Cytotoxicity (CC50) in mock-infected HI-HeLa cells, antirhinoviral assay; assay type: cell-based; conditions: line of HRV serotype-14

compound="CCOC(=O)C=CC(CCC(N)=O)NC(=O)C(CC(=O)C(NC(=O)c1cc(C)on1)C(C)C)Cc1ccc(F)cc1 (stereo not shown) [Compound 34]" system_under_test="HI-HeLa cells" obs_value="> 3 µM"
compound="CC(C)C(NC(=O)SC(C)(C)C)C(=O)CC(Cc1ccc(F)cc1)C(=O)NC(C=CC(=O)OCc1cccnc1)CCC(N)=O (stereo not shown) [Compound 32]" system_under_test="HI-HeLa cells" obs_value="> 32 µM"
compound="CCOC(=O)/C=C/C(CCC(N)=O)NC(=O)C(CC(=O)C(CC(C)C)NC(=O)OCc1ccccc1)Cc1ccccc1 (stereo not shown) [Compound 1]" system_under_test="HI-HeLa cells" obs_value="> 320 µM"
compound="CCOC(=O)C=CC(CCC(N)=O)NC(=O)C(CC(=O)C(NC(=O)C1SCCCS1)C(C)C)Cc1ccc(F)cc1 (stereo not shown) [Compound 31]" system_under_test="HI-HeLa cells" obs_value="> 3 µM"
compound="CCOC(=O)C=CC(CCC(N)=O)NC(=O)C(CC(=O)C(NC(=O)C1SCCS1)C(C)C)Cc1ccc(F)cc1 (stereo not shown) [Compound 27]" system_under_test="HI-HeLa cells" obs_value="> 1 µM"

GET /values?readout=CC50&item= CCOC(=O)C=CC(CCC(N)=O)NC(=O)C(CC(=O)C(NC(=O)SC(C)(C)C)C(C)C)Cc1ccc(F)cc1 (stereo not shown) [Compound 26]
> 10 µM

Now the compound CCOC(=O)/C=C/[C@H](CCC(N)=O)NC(=O)[C@@H](CC(=O)[C@H](CC(C)C)NC(=O)SC1CCCC1)Cc1ccccc1 [Compound 8]
> 100 µM

----------
system: HI-HeLa cells; test: Cytotoxicity (CC50) in mock-infected HI-HeLa cells, antirhinoviral assay; assay type: cell-based; details: line of HRV serotype-14
property: CC50

compound="CC(C)C(NC(=O)SC1CCCC1)C(=O)CC(Cc1ccc(F)cc1)C(=O)NC(C=CC(=O)OCCO)CCC(N)=O (stereo not shown)" property=CC50 obs_value="> 32 µM"
compound="CC(C)C(NC(=O)SC1CCCC1)C(=O)CC(Cc1ccc(F)cc1)C(=O)NC(C=CC(=O)OCc1cccnc1)CCC(N)=O (stereo not shown)" property=CC50 obs_value="> 10 µM"

// moving on: another record for CC50
Enter reported CC50 observed with HI-HeLa cells for CC(C)C(NC(=O)C1SCCS1)C(=O)CC(Cc1ccc(F)cc1)C(=O)NC(C=CC(=O)OCc1cccnc1)CCC(N)=O (stereo not shown)
> 100 µM

----------
This section presents compounds with their documented CC50 values.
Test system: HI-HeLa cells
Assay: Cytotoxicity (CC50) in uninfected HI-HeLa cells, anticoxsackieviral assay
Assay type: cell-based
Details: CVA-21 assay
Experimental: The Coxsackie strain A-21 (CVA-21) was purchased from American Type Culture Collection (ATCC). Virus stocks were propagated, and antiviral assays were performed in HI-HeLa cells (ATCC). […] The ability of compounds to protect cells against CVA-21 infection was measured by the XTT dye reduction method. […] One day later, XTT/PMS was added to test plates, and the amount of formazan produced was quantified spectrophotometrically at 450/650 nm. […]

compound="Cc1cc(CCCCCOc2c(Cl)cc(C3=NCCO3)cc2Cl)on1 [WIN 54954, reference compound]" obs_value="> 100 µM"

// moving on: another record for CC50
GET /values?readout=CC50&item= CCOC(=O)/C=C/C(CCC(N)=O)NC(=O)C(CC(=O)C(NC(=O)SC1CCCC1)C(C)C)Cc1ccccc1 (centres unmarked)
> 10 µM
